Tested on: Plasmodium falciparum
measurement.protocol: In vitro antimalarial activity against Plasmodium falciparum D6 relative to artemisinin
Format: functional
Each entry below lists one item and its recorded Relative activity value.
quantity.name: Relative activity

>>> meas_value("C[C@@H]1CC[C@H]2[C@@H](C)C(=O)O[C@@H]3C[C@@]4(C)CC[C@@H]1[C@]32OO4")
23.3
>>> meas_value("C[C@@H]1CC[C@H]2[C@@H](C)CO[C@@H]3C[C@@]4(C)CC[C@@H]1[C@]32OO4")
32
>>> meas_value("C[C@@H]1CC[C@H]2[C@@H](C)CO[C@H]3C[C@]4(C)CC[C@@H]1[C@@]32OO4")
53
>>> meas_value("C[C@@H]1CC[C@H]2[C@@H](C)C(=O)O[C@@H]3O[C@@]4(C)CC[C@@H]1[C@]32OO4")
100

* * *

System: Plasmodium falciparum
measurement.protocol: In vitro antimalarial activity for Plasmodium falciparum W2
Type: functional, organism-based
Recorded measurements of log10 IC50, one per entry
quantity.name: log10 IC50 (log10 of the value in µg/mL)

>>> meas_value("C[C@@H]1CC[C@H]2[C@@H](C)CO[C@H]3C[C@]4(C)CC[C@@H]1[C@@]32OO4")
-3.11
>>> meas_value("COC[C@H](C)[C@@H]1CC[C@@H](C)[C@@H]2CC[C@]3(C)CC[C@@]21OO3")
-0.15
>>> meas_value("C[C@@H]1CC[C@H]2[C@@H](C)C(=O)O[C@@H]3O[C@@]4(C)CC[C@@H]1[C@]32OO4 [ARTEMISININ]")
-3.32
>>> meas_value("C[C@@H]1CC[C@@H]([C@@H](C)COCc2ccccc2)[C@@]23CC[C@@](C)(CC[C@@H]12)OO3")
-0.18
>>> meas_value("C[C@@H]1CC[C@@H]([C@@H](C)CO)[C@@]23CC[C@@](C)(CC[C@@H]12)OO3")
0.18
>>> meas_value("C[C@@H]1CC[C@H]2[C@@H](C)C(=O)O[C@@H]3C[C@@]4(C)CC[C@@H]1[C@]32OO4")
-1.90
>>> meas_value("C[C@@H]1CC[C@H]2[C@@H](C)CO[C@@H]3C[C@@]4(C)CC[C@@H]1[C@]32OO4")
-2.55
